# testedSystem: T1, human PD-L1, full-length, on CHO cells (human, UniProt Q9NZQ7 19-290)
# T1 construct: also called huPD-L1; CD274
# T1 sequence (Q9NZQ7 19-290): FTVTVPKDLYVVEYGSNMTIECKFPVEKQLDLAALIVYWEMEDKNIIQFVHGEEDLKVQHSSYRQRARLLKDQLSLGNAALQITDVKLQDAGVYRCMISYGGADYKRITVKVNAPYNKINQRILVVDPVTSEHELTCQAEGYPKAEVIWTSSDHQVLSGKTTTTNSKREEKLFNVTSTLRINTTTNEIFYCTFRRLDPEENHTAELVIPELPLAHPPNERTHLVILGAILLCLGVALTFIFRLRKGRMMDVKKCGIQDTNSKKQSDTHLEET
# protocolSummary: flow cytometry, CHO/PD-L1 cells; MFI relative to WT CD80 ECD-Fc
measuredEndpoint: Fold change to WT CD80 (fold)
Just the number please, in fold, no unit attached.

q: Fill in the blank: the reported Fold change to WT CD80 of variant CD80 IgV-Fc D46V/L85Q (Fc fusion, not shown: small tags and cut ends; a dimerising Fc or GST) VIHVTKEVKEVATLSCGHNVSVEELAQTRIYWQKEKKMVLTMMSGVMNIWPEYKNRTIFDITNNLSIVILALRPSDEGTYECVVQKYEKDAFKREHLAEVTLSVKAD is ____.
a: 17.2

q: Fill in the blank: the reported Fold change to WT CD80 of variant CD80 IgV-Fc E35D/N48K (Fc fusion, not shown: small tags and cut ends; a dimerising Fc or GST) VIHVTKEVKEVATLSCGHNVSVEELAQTRIYWQKDKKMVLTMMSGDMKIWPEYKNRTIFDITNNLSIVILALRPSDEGTYECVVLKYEKDAFKREHLAEVTLSVKAD is ____.
a: 51.1

The origin of these recorded values is patent US20210130436A1.
